// provenance: paper PMC6480460

The molecules listed here are annotated with their pIC50.
MEASUREMENT_TARGET: hBuChE (Homo sapiens)
Sequence (P06276 29-602): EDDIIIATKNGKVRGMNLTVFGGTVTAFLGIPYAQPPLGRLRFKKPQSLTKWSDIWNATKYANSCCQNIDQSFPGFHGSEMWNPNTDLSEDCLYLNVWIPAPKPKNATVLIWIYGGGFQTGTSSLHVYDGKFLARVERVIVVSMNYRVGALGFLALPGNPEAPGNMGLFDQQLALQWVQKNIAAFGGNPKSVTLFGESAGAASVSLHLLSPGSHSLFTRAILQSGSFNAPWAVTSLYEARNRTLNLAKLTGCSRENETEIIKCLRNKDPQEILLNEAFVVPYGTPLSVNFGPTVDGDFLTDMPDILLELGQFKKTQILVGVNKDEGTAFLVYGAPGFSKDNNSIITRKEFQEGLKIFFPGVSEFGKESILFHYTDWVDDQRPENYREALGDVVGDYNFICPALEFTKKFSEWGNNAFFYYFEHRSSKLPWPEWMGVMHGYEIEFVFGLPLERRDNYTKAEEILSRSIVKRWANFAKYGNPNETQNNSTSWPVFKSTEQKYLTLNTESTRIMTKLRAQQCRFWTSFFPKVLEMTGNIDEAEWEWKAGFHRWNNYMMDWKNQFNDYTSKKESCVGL
TEST: biochemical
Type: biochemical
CONDITIONS: mean ± SEM of three independent measurements, each in triplicate; read-out: hBuChE IC50
pIC50: −log10 of the molar value.
READOUT_KIND: pIC50

MOLECULE	OBS_VALUE
COc1cccc(C(=O)OC2CN3Cc4cc5c(cc4C24C=CC(OC)CC34)OCO5)c1 (stereo not drawn) [Compound 1k, 11-O-(3-Methoxybenzoyl)haemanthamine]	4.12
COC1C=CC23c4cc5c(cc4CN(CC2OC(=O)C(C)C)C3C1)OCO5 (stereo not drawn) [Compound 1c, 11-O-Isobutanoylhaemanthamine]	3.69
COC1C=CC23c4cc5c(cc4CN(CC2OC(=O)c2cccc(Br)c2)C3C1)OCO5 (stereo not drawn) [Compound 1i, 11-O-(3-Bromobenzoyl)haemanthamine]	3.89

* * *

The molecules listed here are annotated with their activity at 10 µM.
System: Jurkat (acute T cell leukemia)
TEST: WST-1 cytotoxicity assay, Jurkat
Type: cell-based
CONDITIONS: Homo sapiens, c = 10 μM, 48 h, percent of proliferation of untreated control cells
Experimental: […] The WST-1 (Roche, Mannheim, Germany) reagent was used to determine the cytostatic effect of the test compounds. WST-1 is designed for the spectrophotometric quantification of cell proliferation, growth, viability and chemosensitivity in cell populations using a 96-well-plate format (Sigma, St. Louis, MO, USA). […] Absorbance was measured after 3 h incubation with WST-1 at 440 nm. […]
READOUT_KIND: activity at 10 µM

In [3]: df
Out[3]:
                                   molecule              measurement_target       readout_kind  obs_value
0  COC1C=CC23c4cc5c(cc4CN(CC2OC(=O)c2ccccc2)C3C1)OCO5 (stereo not drawn)  Jurkat (acute T cell leukemia)  activity at 10 µM        83%
1  CCCC(=O)OC1CN2Cc3cc4c(cc3C13C=CC(OC)CC23)OCO4 (stereo not drawn)  Jurkat (acute T cell leukemia)  activity at 10 µM        90%
2  COC1C=CC23c4cc5c(cc4CN(CC2OC(=O)c2cccc(Br)c2)C3C1)OCO5 (stereo not drawn)  Jurkat (acute T cell leukemia)  activity at 10 µM       133%

* * *

Tested on: SAOS-2 (osteosarcoma)
TEST: WST-1 cytotoxicity assay, SAOS-2
Type: cell-based
CONDITIONS: Homo sapiens, c = 10 μM, 48 h, percent of proliferation of untreated control cells, read-out: Cell proliferation, SAOS-2
READOUT_KIND: activity at 10 µM (%)

In [3]: df
Out[3]:
                                   molecule       readout_kind  value_unit  obs_value
0  COC1C=CC23c4cc5c(cc4CN(CC2OC(=O)c2ccccc2C)C3C1)OCO5 (stereo not drawn)  activity at 10 µM           %         97
1  COC1C=CC23c4cc5c(cc4CN(CC2OC(=O)C(C)C)C3C1)OCO5 (stereo not drawn)  activity at 10 µM           %         85
2  CCC(=O)OC1CN2Cc3cc4c(cc3C13C=CC(OC)CC23)OCO4 (stereo not drawn)  activity at 10 µM           %         96
3  COC1C=CC23c4cc5c(cc4CN(CC2OC(C)=O)C3C1)OCO5 (stereo not drawn)  activity at 10 µM           %         88
4  CCCCCC(=O)OC1CN2Cc3cc4c(cc3C13C=CC(OC)CC23)OCO4 (stereo not drawn)  activity at 10 µM           %         96
5  CCCCC(=O)OC1CN2Cc3cc4c(cc3C13C=CC(OC)CC23)OCO4 (stereo not drawn)  activity at 10 µM           %         88
6  COc1cccc(C(=O)OC2CN3Cc4cc5c(cc4C24C=CC(OC)CC34)OCO5)c1 (stereo not drawn)  activity at 10 µM           %         89
7  COC1C=CC23c4cc5c(cc4CN(CC2OC(=O)c2cccc(Br)c2)C3C1)OCO5 (stereo not drawn)  activity at 10 µM           %         97
8  COC1C=CC23c4cc5c(cc4CN(CC2OC(=O)c2ccc([N+](=O)[O-])cc2)C3C1)OCO5 (stereo not drawn)  activity at 10 µM           %         69
